Each recorded value in this set is attributed to ChEMBL document CHEMBL2218924.

Target: Homeodomain-interacting protein kinase 1 (Homo sapiens)
Details: at 1 µM
Description: Millipore: Percentage of residual kinase activity of HIPK1 at 1uM relative to control. Control inhibitor: Phosphoric acid* at 0.3uM. Buffer: 8 mM MOPS pH 7.0, 0.2 mM EDTA

{"Compound": "N/C(=N\\[N+](=O)[O-])N/N=C\\c1ccc(-c2cccc([N+](=O)[O-])c2)o1", "residual activity, %": 99}
{"Compound": "CN[C@@H]1C[C@H]2O[C@@](C)([C@@H]1OC)n1c3ccccc3c3c4c(c5c6ccccc6n2c5c31)C(=O)NC4", "residual activity, %": 87}
{"Compound": "O=[N+]([O-])/C=C/c1ccc2c(c1)OCO2", "residual activity, %": 96}
{"Compound": "COC(=O)[C@@]1(O)C[C@H]2O[C@]1(C)n1c3ccccc3c3c4c(c5c6ccccc6n2c5c31)C(=O)NC4", "residual activity, %": 78}
{"Compound": "O=c1[nH]c2ccccc2n1C1CCN(Cc2ccc(-c3nc4cc5[nH]cnc5cc4nc3-c3ccccc3)cc2)CC1", "residual activity, %": 101}
{"Compound": "C[S+]([O-])c1ccc(-c2nc(-c3ccc(F)cc3)c(-c3ccncc3)[nH]2)cc1 (configuration not stated)", "residual activity, %": 102}
{"Compound": "O=C1Nc2ccc3ncsc3c2/C1=C/c1c[nH]cn1", "residual activity, %": 64}
